# Assayed Target: human TLR8 (Homo sapiens, UniProt Q9NR97)
# Sequence (Q9NR97 27-1041): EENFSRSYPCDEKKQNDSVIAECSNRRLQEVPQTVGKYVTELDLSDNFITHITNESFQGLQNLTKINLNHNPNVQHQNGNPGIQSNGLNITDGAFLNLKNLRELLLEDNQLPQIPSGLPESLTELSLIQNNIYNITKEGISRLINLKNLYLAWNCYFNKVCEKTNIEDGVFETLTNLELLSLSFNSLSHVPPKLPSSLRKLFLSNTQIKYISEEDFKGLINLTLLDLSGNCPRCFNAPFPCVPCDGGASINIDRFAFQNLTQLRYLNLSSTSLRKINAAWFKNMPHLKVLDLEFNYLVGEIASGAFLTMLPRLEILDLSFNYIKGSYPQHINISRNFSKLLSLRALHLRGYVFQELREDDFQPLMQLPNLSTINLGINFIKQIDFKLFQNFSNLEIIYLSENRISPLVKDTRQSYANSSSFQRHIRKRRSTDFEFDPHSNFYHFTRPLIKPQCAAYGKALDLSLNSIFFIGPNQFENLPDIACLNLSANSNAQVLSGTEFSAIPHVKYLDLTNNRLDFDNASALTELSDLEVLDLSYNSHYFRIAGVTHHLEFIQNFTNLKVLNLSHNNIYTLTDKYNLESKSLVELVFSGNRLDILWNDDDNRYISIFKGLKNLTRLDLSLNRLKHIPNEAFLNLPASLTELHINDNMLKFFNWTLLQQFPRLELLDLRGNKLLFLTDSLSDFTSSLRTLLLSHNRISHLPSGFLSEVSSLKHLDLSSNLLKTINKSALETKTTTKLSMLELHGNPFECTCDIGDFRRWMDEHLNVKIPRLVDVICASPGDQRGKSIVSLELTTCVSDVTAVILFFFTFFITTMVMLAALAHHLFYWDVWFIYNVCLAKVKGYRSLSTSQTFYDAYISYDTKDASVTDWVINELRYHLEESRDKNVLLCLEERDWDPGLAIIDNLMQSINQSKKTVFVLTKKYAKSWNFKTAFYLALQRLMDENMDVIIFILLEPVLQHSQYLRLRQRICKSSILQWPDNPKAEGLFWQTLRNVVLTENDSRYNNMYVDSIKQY
# Assay Comment: TLR8 inhibition reporter assay (HEK-Blue cells, SEAP reporter, R848 stimulation)
# Conditions Used: HEK-Blue cells overexpressing human TLR8, SEAP reporter, R848 15.9 μM
# Text: TLR7/8/9 Inhibition Reporter Assays HEK-Blue™-cells (Invivogen) overexpressing human TLR7, TLR8 or TLR9 receptors were used for screening inhibitors of these receptors using an inducible SEAP (secreted embryonic alkaline phosphatase) reporter gene under the control of the IFN-β minimal promoter fused to five NF-κB and AP-1-binding sites. […]
pIC50: −log10 of the molar value.
Readout Label: pIC50

Illustrative cases are given below, each with its answer.
Molecule: Cc1cc(-c2[nH]c3ccc(C4CCC(OC5CCNCC5)CC4)cc3c2C(C)C)ccn1 (stereo not drawn)
Readout Label: pIC50
Observed Result: 7.36
--
Molecule: COc1cc(-c2[nH]c3ccc(C4CCC(NCC(F)F)CC4)cc3c2C(C)C)cn2ncnc12 (single isomer, unassigned) [Example 68]
Readout Label: pIC50
Observed Result: 8.17
--
Molecule: Cc1c(-c2[nH]c3ccc(C4CN(CC(C)(C)O)C4)cc3c2C(C)C)cn2ncnc2c1C
Readout Label: pIC50
Observed Result: 8.44

a: COc1cc(-c2[nH]c3ccc(CC4CN(CCS(C)(=O)=O)C4)cc3c2C(C)C)cn2ncnc12
b: CNC1CCC(c2ccc3[nH]c(-c4cc(C)nc(C)c4)c(C(C)C)c3c2)CC1 (single isomer, unassigned) [Example 52]
c: Cc1c(-c2[nH]c3ccc(C4CC(NCCS(C)(=O)=O)C4)cc3c2C(C)C)cn2ncnc2c1C (stereo not drawn)
Request: Please list these in order of increasing pIC50. Thank you! Form entry: ranked labels (order as requested).
Response: a, b, c
(a: 8.46, b: 8.74, c: 9.51)
